- measurement-target: human CD33 (human, UniProt P20138 18-364)
- Sequence (P20138 18-364): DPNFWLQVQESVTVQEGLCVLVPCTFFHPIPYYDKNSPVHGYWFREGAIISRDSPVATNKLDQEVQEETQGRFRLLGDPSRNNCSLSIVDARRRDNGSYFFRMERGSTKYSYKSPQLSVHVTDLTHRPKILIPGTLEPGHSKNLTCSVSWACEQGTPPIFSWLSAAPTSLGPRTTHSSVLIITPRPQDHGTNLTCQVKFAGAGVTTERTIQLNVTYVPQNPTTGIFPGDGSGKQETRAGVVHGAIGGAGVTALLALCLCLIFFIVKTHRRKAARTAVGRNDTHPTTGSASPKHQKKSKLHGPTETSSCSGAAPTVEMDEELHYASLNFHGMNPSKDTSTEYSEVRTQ
- protocol: cell-based or functional assay
Give measured Percent CD33 Surface Expression, Macrophage % CD33 for each item. Keep answers brief.
Enter your answer as a number in %; do not include the unit.

Short answer for C-64 (antibody, V domains shown, human IgG1) VH: QVQLVQSGAEVKKPGSSVKVSCKASGGTFSSLAISWVRQAPGQGLEWMGGIIPIFGTANYAQKFQGRVTITADESTSTAYMELSSLRSEDTAVYYCARGTFYSDELFDYWGQGTLVTVSS VL: DIQMTQSPSSVSASVGDRVTITCRASQGISSWLAWYQQKPGKAPKLLIYAASSLQSGVPSRFSGSGSGTDFTLTISSLQPEDFATYYCQQENSYPLTFGGGTKVEIK : Percent CD33 Surface Expression, Macrophage % CD33 was 40.5

For this binder ( C-35 (antibody, V domains shown, human IgG1) VH: QLQLQESGPGLVKPSETLSLTCTVSGGSISSSSYAWGWIRQPPGKGLEWIGNIYYSGSTYYNPSLKSRVTISVDTSKNQFSLKLSSVTAADTAVYYCARAGYRSPSGFDYWGQGTLVTVSS VL: DIQMTQSPSSVSASVGDRVTITCRASQGISSWLAWYQQKPGKAPKLLIYAASNLQSGVPSRFSGSGSGTDFTLTISSLQPEDFATYYCQQGNAHPTFGGGTKVEIK ), measured Percent CD33 Surface Expression, Macrophage % CD33 is 51.2

Measured Percent CD33 Surface Expression, Macrophage % CD33, C-91 (antibody, V domains shown, human IgG1) VH: EVQLVESGGGLVQPGGSLRLSCAASGFTFSSYWMSWVRQAPGKGLEWVANIKSDGSEKYYVDSVKGRFTISRDNAKNSLYLQMNSLRAEDTAVYYCARDVGGDYSGSDLASYWGQGTLVTVSS VL: DIQMTQSPSSLSASVGDRVTITCRASQSISSYLNWYQQKPGKAPKLLIYAASSLQSGVPSRFSGSGSGTDFTLTISSLQPEDFATYYCQQGYDPPLTFGGGTKVEIK : 38.4
